Recorded values, source BindingDB's records for patent US12215173.

Biological target: UniProt P41145
Sequence (P41145 whole entry): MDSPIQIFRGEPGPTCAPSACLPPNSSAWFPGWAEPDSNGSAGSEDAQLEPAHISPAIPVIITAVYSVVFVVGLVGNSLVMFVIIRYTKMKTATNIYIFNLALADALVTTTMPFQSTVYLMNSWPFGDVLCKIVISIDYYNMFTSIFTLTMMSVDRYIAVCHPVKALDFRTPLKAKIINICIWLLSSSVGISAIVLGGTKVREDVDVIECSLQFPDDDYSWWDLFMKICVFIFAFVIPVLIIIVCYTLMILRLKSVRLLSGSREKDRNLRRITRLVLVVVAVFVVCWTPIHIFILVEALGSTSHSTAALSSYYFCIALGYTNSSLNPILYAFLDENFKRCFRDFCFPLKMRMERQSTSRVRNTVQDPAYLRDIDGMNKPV
pIC50: −log10 of the molar value. Square brackets hold non-standard residues; d marks the D form. Peptide text beside a SMILES is read from it. * marks the point of attachment. Pyrrolidino(3-NH2-3-COOH) = NC1(C(=O)O)CCN(*)C1; dTic = O=C(O)[C@H]1Cc2ccccc2CN1
Lab note: compare pIC50 against 8. Equal or greater, write Satisfied. Smaller, write Not satisfied.

Recorded results for 3 compounds are shown here.
[[record]]
compound = "COC(=O)C1(N)CCN(C(=O)[C@@H](CCCCN)NC(=O)[C@@H](CC(C)C)NC(=O)[C@@H](Cc2ccccc2)NC(=O)[C@H]2Cc3ccccc3CN2)CC1"
class = "Satisfied"

[[record]]
compound = "CC(C)C[C@@H](NC(=O)[C@@H](Cc1ccccc1)NC(=O)[C@H](N)Cc1ccccc1)C(=O)N[C@H](CCCCN)C(=O)N1CCC(O)(CO)CC1"
class = "Satisfied"

[[record]]
compound = "CC(C)C[C@@H](NC(=O)[C@@H](Cc1ccccc1)NC(=O)[C@H]1Cc2ccccc2CN1)C(=O)N[C@H](CCCCN)C(=O)N1CCC(N)(C(=O)O)CC1"
class = "Satisfied"


Continue with the next compound.
// inclusive: pIC50 at least 8? input: CC(C)C[C@@H](NC(=O)[C@@H](Cc1ccccc1)NC(=O)[C@H]1Cc2ccccc2CN1)C(=O)N[C@H](CCCCN)C(=O)N1CCC(N)(C(=O)O)C1 (stereo partly drawn) [US12215173, Compound 169] (H-[dTic][dF][dL][dK]-{Pyrrolidino(3-NH2-3-COOH)})
Not satisfied

###

Molecular target: Delta-type opioid receptor (Homo sapiens, UniProt P41143)
Sequence (P41143 whole entry): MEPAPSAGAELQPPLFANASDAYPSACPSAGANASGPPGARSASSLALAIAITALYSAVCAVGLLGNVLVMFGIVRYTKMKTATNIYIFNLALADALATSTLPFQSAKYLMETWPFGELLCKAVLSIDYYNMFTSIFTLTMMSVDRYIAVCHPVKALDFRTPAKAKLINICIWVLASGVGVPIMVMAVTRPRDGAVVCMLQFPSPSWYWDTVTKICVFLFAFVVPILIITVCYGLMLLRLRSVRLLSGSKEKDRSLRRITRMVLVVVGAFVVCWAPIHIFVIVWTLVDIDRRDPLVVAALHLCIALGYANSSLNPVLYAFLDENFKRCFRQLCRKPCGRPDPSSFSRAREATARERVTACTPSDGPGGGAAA
Assay: Opioid Receptor Binding Assay
Kindly supply the reported IC50 values for the records listed here.

[[record]]
compound = "CC(C)C[C@@H](NC(=O)[C@@H](Cc1ccccc1)NC(=O)[C@H](N)Cc1ccccc1)C(=O)N[C@H](CCCCN)C(=O)NCCC[C@H](N)C(=O)O [US12215173, Compound 13-44]"
result = "> 10 µM"

[[record]]
compound = "COC(=O)C1(N)CCN(C(=O)[C@@H](CCCCN)NC(=O)[C@H](NC(=O)[C@@H](Cc2ccccc2)NC(=O)[C@H](N)Cc2ccccc2)C(C)(C)C)CC1 [US12215173, Compound 100]"
result = "> 10 µM"

[[record]]
compound = "COC(=O)C1(N)CCN(C(=O)[C@@H](CCCCN)NC(=O)[C@@H](CC(C)C)NC(=O)[C@@H](Cc2ccccc2)NC(=O)[C@H](N)Cc2ccc(F)cc2)C1 (stereo not given in full) [US12215173, Compound 181]"
result = "> 10 µM"

[[record]]
compound = "COC(=O)C1(N)CCN(C(=O)[C@@H](CCCCN)NC(=O)[C@@H](CC(C)C)NC(=O)[C@@H](Cc2ccccc2)NC(=O)[C@H]2Cc3ccccc3CN2)CC1 [US12215173, Compound 171]"
result = "> 10 µM"


Please find the next compound below.
Specify IC50 for COC(=O)C1(N)CCN(C(=O)[C@@H](CCCCN)NC(=O)[C@@H](CC(C)C)NC(=O)[C@@H](Cc2ccccc2)NC(=O)[C@H](N)Cc2ccc(F)cc2)CC1 [US12215173, Compound 184] , system Delta-type opioid receptor (Homo sapiens, UniProt P41143).
> 10 µM
